# System: M. tuberculosis H37Rv growth inhibition, 7H9 media
# procedure text: M. tuberculosis growth inhibition, HTS (AID 449762);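 also: bacterial growth assessed after seven days of incubation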
# details: measured here: IC90 growth inhibition
Results filed as inconclusive are left out.
Entries and their log10 of IC90 values follow.
Values reflect log10 of reported IC90 (µM).

Query :: Reported log10 of IC90 for Cc1ccc(C)c(NC(=O)c2cc(-c3ccccc3)nn2-c2ccccc2)c1 : what is it?
Result :: 1.78

###

Entries and their IC90 values follow.
# Tested on: M. tuberculosis H37Rv growth inhibition, 7H9 media
# procedure text: M. tuberculosis growth inhibition, HTS (AID 449762);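 also: bacterial growth assessed after seven days of incubation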
# details: measured here: IC90 growth inhibition
Inconclusive results are not listed.
Record the value in µM, omitting the unit from your answer.

Record excerpt, results attached:
Fc1ccc(C[n+]2c(-c3ccccc3)cc(-c3ccccc3)cc2-c2ccccc2)cc1 | 44.3
CSc1ncc(C(=O)Nc2ccc(Br)cn2)c(C)n1 | 3.9
CCOC(=O)Oc1c(OC)cc(C(=O)O[C@@H]2C[C@@H]3CN4CCc5c([nH]c6cc(OC)ccc56)[C@H]4C[C@@H]3[C@H](C(=O)OC)[C@H]2OC)cc1OC | 27.3
Clc1ccc2c(c1)CCc1cccnc1C2=C1CCNCC1 | 31.3

Query :: Reported IC90 for Cc1nonc1OCCNCCNc1ccc([N+](=O)[O-])c2cccnc12 : what is it?
Result :: 13.9

Query :: Reported IC90 for CN1CCN(CC(=O)N2CCn3c4c(c5cc(C6CCCCC6)ccc53)CCCC42)CC1 (configuration not stated) : what is it?
Result :: 23.6

Query :: Reported IC90 for CC(C)(C)CC(C)(C)c1ccc(OCCOCC[N+](C)(C)Cc2ccccc2)cc1 : what is it?
Result :: 30

Query :: Reported IC90 for COc1cc(/C=C2\C(=O)N(c3ccc(S(N)(=O)=O)cc3)N=C2C)ccc1OC(=O)c1ccco1 : what is it?
Result :: 22.6

Query :: Reported IC90 for Cc1noc(C)c1COc1ccc(C(=O)OCC(=O)NC23CC4CC(CC(C4)C2)C3)cc1 : what is it?
Result :: 24.5

###

# Test system: M. tuberculosis H37Rv growth inhibition, 7H9 media
# procedure text: M. tuberculosis growth inhibition, HTS (AID 449762);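 also: bacterial growth assessed after seven days of incubation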
# details: measured here: IC90 growth inhibition
Records with an inconclusive call do not appear.
measured quantity: IC90 (µM)
Record the value in µM, omitting the unit from your answer.

CC1CCCCC1NC(=O)c1ccc2c(c1)[nH]c(=O)n2C1CCCC1 (stereo not given) | 8.42
CC(=O)c1ccc(-n2cc(-c3ccc(C(C)(C)C)cc3)[n+]3c2SCCC3)cc1 | 29.5
COc1cc2c(cc1OC)C(c1cc(Br)ccc1F)N(C(=O)CCl)CC2 (stereo not given) | 5.69
Cc1cccc(/C=C/c2onc(C)c2[N+](=O)[O-])n1 | 19.1
O=C(CCS(=O)(=O)c1ccc(F)cc1)Nc1nc(-c2ccccn2)cs1 | 17.1
COc1ccc(-c2nsc3c(N4CCCCC4C)ncnc23)cc1 (stereo not given) | 56.8
c1ccc(Nc2nc(N3CCCCC3)nc(N3CCNCC3)n2)cc1 | 68.9
CCOC(=O)CSc1ncnc2c1sc1nc(N3CCOCC3)c3c(c12)CCCC3 | 26.2

Query :: What IC90 appears in the records for this compound with M. tuberculosis H37Rv growth inhibition, 7H9 media? O=C(Oc1ccccc1-c1nnco1)c1ccc(Cl)cc1
Result :: 44.7

Query :: What IC90 appears in the records for this compound with M. tuberculosis H37Rv growth inhibition, 7H9 media? CC1(c2ccc(OC(F)F)cc2)NC(=O)N(CC(=O)c2ccc3c(c2)OCO3)C1=O (stereo not given)
Result :: 32.2

Query :: What IC90 appears in the records for this compound with M. tuberculosis H37Rv growth inhibition, 7H9 media? CC(=O)OC1=Cc2c(ccc3ccc(=O)oc23)OC1(C)C
Result :: 31.6

Query :: What IC90 appears in the records for this compound with M. tuberculosis H37Rv growth inhibition, 7H9 media? CC(=O)n1cc(N(C(=O)CCl)c2ccc(Cl)cc2)c2ccccc21
Result :: 3.99

Hello, the source for this data is PubChem BioAssay AID449762, in case you need it.
